Sourced from patent US10772928B2

molecules and their reported AvgP (average of the SAINT scores)
- test_system: T1, nSR100 (Mus musculus, UniProt Q8BKA3)
- T1 construct: host or cells: mouse N2A cells
- T1 sequence (Q8BKA3 1-608): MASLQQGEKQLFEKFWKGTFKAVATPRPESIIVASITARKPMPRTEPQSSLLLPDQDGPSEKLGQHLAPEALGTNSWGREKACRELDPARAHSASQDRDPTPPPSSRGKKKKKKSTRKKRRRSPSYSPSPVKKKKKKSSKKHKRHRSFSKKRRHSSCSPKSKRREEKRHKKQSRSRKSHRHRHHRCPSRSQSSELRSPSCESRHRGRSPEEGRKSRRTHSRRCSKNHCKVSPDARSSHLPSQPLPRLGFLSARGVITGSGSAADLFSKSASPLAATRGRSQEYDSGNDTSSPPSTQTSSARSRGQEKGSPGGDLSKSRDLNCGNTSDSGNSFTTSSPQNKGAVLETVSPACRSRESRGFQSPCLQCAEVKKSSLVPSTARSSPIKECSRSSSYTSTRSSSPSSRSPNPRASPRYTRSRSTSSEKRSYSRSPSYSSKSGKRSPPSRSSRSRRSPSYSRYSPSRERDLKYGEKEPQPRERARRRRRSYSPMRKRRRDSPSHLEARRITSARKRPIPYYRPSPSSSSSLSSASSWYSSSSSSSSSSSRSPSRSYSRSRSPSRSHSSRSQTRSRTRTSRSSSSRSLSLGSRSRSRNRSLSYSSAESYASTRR
- assay_notes: AP-MS nSR100 interaction partners from mouse N2A cells (Table 5)
- Type: binding
- particulars: bait Srrm4

# molecule, AvgP (average of the SAINT scores)
measured = [
    ("Tpi1 (protein, UniProt P17751 2-249, looked up) Triosephosphate isomerase: APTRKFFVGGNWKMNGRKKCLGELICTLNAANVPAGTEVVCAPPTAYIDFARQKLDPKIAVAAQNCYKVTNGAFTGEISPGMIKDLGATWVVLGHSERRHVFGESDELIGQKVSHALAEGLGVIACIGEKLDEREAGITEKVVFEQTKVIADNVKDWSKVVLAYEPVWAIGTGKTATPQQAQEVHEKLRGWLKSNVNDGVAQSTRIIYGGSVTGATCKELASQPDVDGFLVGGASLKPEFVDIINAKQ", 0.87),
    ("Csnk2a1 (protein, UniProt Q60737 1-391, looked up) Casein kinase II subunit alpha: MSGPVPSRARVYTDVNTHRPREYWDYESHVVEWGNQDDYQLVRKLGRGKYSEVFEAINITNNEKVVVKILKPVKKKKIKREIKILENLRGGPNIITLADIVKDPVSRTPALVFEHVNNTDFKQLYQTLTDYDIRFYMYEILKALDYCHSMGIMHRDVKPHNVMIDHEHRKLRLIDWGLAEFYHPGQEYNVRVASRYFKGPELLVDYQMYDYSLDMWSLGCMLASMIFRKEPFFHGHDNYDQLVRIAKVLGTEDLYDYIDKYNIELDPRFNDILGRHSRKRWERFVHSENQHLVSPEALDFLDKLLRYDHQSRLTAREAMEHPYFYTVVKDQARMSSTSMAGGSTPVSSANMMSGISSVPTPSPLGPLAGSPVIAAANSLGIPVPAAAGAQQ", 1),
    ("Pgam5 (protein, UniProt Q8BX10 1-288, looked up) Serine/threonine-protein …: MAFRQALQLAACGLAGGSAAVLFSAVAVGKPRGGGDADTRATEPPAWTGARAGRGVWDTNWDRREPLSLINLKKRNVESGEDELTSRLDHYKAKATRHIFLIRHSQYHVDGSLEKDRTLTPLGREQAELTGLRLASLGLKFNKIVHSSMTRAVETTDIISKHLPGVSRVSTDLLREGAPIEPDPPVSHWKPEAVQYYEDGARIEAAFRNYIHRADARQEEDSYEIFICHANVIRYIVCRALQFPPEGWLRLSLNNGSITHLVIRPNGRVALRTLGDTGFMPPDKITRS", 1),
    ("Snrpa (protein, UniProt Q62189 1-287, looked up) U1 small nuclear …: MATIATMPVPETRANHTIYINNLNEKIKKDELKKSLYAIFSQFGQILDILVSRIMKMRGQAFVIFKEVTSATNALRSMQGFPFYDKPMRIQYAKTDSDIIAKMKGTYVERDRKREKRKPKSQETPAAKKAVQGGAAAPVVGAVQPVPGMPPMPQAPRIMHHMPGQPPYMPPPGMIPPPGLAPGQIPPGAMPPQQLMPGQMPPAQPLSENPPNHILFLTNLPEETNELMLSMLFNQFPGFKEVRLVPGRHDIAFVEFDNEVQAGAARDALQGFKITQNNAMKISFAKK", 1),
    ("Sap18 (protein, UniProt O55128 2-153, looked up) Histone deacetylase complex …: AVESRVTQEEIKKEPEKPIDREKTCPLLLRVFTTNNGRHHRMDEFSRGNVPSSELQIYTWMDATLKELTSLVKEVYPEARKKGTHFNFAIVFMDLKRPGYRVKEIGSTMSGRKGTDDSMTLQSQKFQIGDYLDIAITPPNRAPPSSGRMRPY", 1),
]
